- assay_system: T1, Abp1, P15891
- T1 sequence (P15891 535-592, looked up): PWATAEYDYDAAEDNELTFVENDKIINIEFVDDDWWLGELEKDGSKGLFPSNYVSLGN
- assay_remarks: SPOT array
- particulars: median of control spots 935
In this scheme, each record receives a class according to its SPOT intensity; the ranges are bottom (below 1), middle (1 to below 100), top (100 or more)

> print(dat)
            binder  assigned.category
1  NMLKKKPLKKPLKRF                top
2  HPRFVSPRIPSRIVK                top
3  FVLRYYILIPHEQWD             bottom
4  PPIPIVPSSPAPPLP             bottom
5  VKPRQLFPIPLNKVD             middle

stdin: Just checking, what class would you give `TPTSGPPLLPPRNTM` here?
stdout: middle

stdin: Just checking, what class would you give `PPLPRAPPVPPATFE` here?
stdout: middle

stdin: Just checking, what class would you give `RKRAPTPPAPSRSEK` here?
stdout: top

stdin: Just checking, what class would you give `MFLISPPASPPPEFD` here?
stdout: bottom

stdin: Just checking, what class would you give `DFTLPPPPPPPGLDE` here?
stdout: bottom

stdin: Just checking, what class would you give `GPPPPLPPPLFPSSS` here?
stdout: middle

stdin: Just checking, what class would you give `ISNFVPPNLPMRRFK` here?
stdout: top
